Source: the antibiotic and cytotoxicity screens of Wong et al. (2023)

test system: HSkMC (human skeletal muscle cells); assay: cytotoxicity call (relative viability < 0.9); settings: 10 µM
Hit rate of the full screen: of about 39,000 compounds, about 1,500 (3.8%) were called active. Only a selection was taken, and actives are over-represented in it overall.
Outcomes: Y = active, N = inactive

| chemical smiles | qualitative label |
| --- | --- |
| C[C@H](CO)N1C[C@H](C)[C@H](CN(C)Cc2ccc(C(F)(F)F)cc2)Oc2ccc(NC(=O)C3CCCCC3)cc2C1=O | N |
| C[C@H]1CN([C@@H](C)CO)C(=O)c2cc(NC(=O)Nc3ccc(C(F)(F)F)cc3)ccc2O[C@H]1CN(C)C(=O)Nc1ccc2c(c1)OCO2 | N |
| CCOC(=O)Cn1cccc2oc(=O)nc1-2 | N |
| COc1ccc(NC(=O)Nc2ccc3c(c2)CC(=O)N([C@@H](C)CO)C[C@@H](C)[C@H](CN(C)CC2CCCCC2)O3)cc1 | N |
| COc1ccc(CN(C)C[C@@H]2OCCCC[C@@H](C)Oc3ccc(NC(=O)Nc4cccc5ccccc45)cc3C(=O)N([C@@H](C)CO)C[C@@H]2C)cc1 | N |
| COc1ccc(CN(C)C[C@H]2OCCCC[C@H](C)Oc3ccc(NC(=O)Nc4cccc5ccccc45)cc3C(=O)N([C@H](C)CO)C[C@H]2C)cc1 | Y |
| COCC(=O)N1C[C@@H](C)[C@@H](OC)CN(C)C(=O)c2cc(NC(=O)c3ccc(F)cc3)ccc2OC[C@H]1C | N |
